Each item that follows carries a reported relative viability.
test system: LCLC-97TM1; test: relative viability (nuclei count vs DMSO), 5 days (fraction); higher = more cells survive; conditions: first compound 0.01 µM
quantity.measured: relative viability

{"columns": ["molecule", "target.desc", "quantity.measured", "val"],
 "data": [
  ["CC(C)Oc1cc(Nc2nc(N[C@@H](C)c3ccc(F)cn3)ncc2Cl)n[nH]1 [AZ23] + CC(=O)c1c(C)c2cnc(Nc3ccc(N4CCNCC4)cn3)nc2n(C2CCCC2)c1=O [Palbociclib] (partner 0.5 µM)", "LCLC-97TM1", "relative viability", 0.261],
  ["CC(C)Oc1cc(Nc2nc(N[C@@H](C)c3ccc(F)cn3)ncc2Cl)n[nH]1 [AZ23] + CC(=O)Nc1cccc(-n2c(=O)n(C3CC3)c(=O)c3c(Nc4ccc(I)cc4F)n(C)c(=O)c(C)c32)c1 [Trametinib] (partner 0.02 µM)", "LCLC-97TM1", "relative viability", 0.238],
  ["CC(C)Oc1cc(Nc2nc(N[C@@H](C)c3ccc(F)cn3)ncc2Cl)n[nH]1 [AZ23] + N=C(N)NC(=N)NCCc1ccccc1 [Phenformin] (partner 250 µM)", "LCLC-97TM1", "relative viability", 0.502],
  ["CC(C)Oc1cc(Nc2nc(N[C@@H](C)c3ccc(F)cn3)ncc2Cl)n[nH]1 [AZ23] + Cc1nc(Nc2ncc(C(=O)Nc3c(C)cccc3Cl)s2)cc(N2CCN(CCO)CC2)n1 [Dasatinib] (partner 0.075 µM)", "LCLC-97TM1", "relative viability", 0.924],
  ["CC(C)Oc1cc(Nc2nc(N[C@@H](C)c3ccc(F)cn3)ncc2Cl)n[nH]1 [AZ23] + CC1(C)CCC(c2ccc(Cl)cc2)=C(CN2CCN(c3ccc(C(=O)NS(=O)(=O)c4ccc(N[C@H](CCN5CCOCC5)CSc5ccccc5)c(S(=O)(=O)C(F)(F)F)c4)cc3)CC2)C1 [Navitoclax] (partner 0.5 µM)", "LCLC-97TM1", "relative viability", 0.381]
]}
